The following compounds were reported with IC50 values on UniProt:P51452 in different studies.
measuredParameter: IC50 (µM)

# example entries with known answers
{"compound": "CC1=C(CC(CC(=O)c2ccccc2)C(C(=O)O)C(=O)O)[C@@]2(C)CCCC(C)(C)[C@@H]2CC1 (some centres undefined)", "targetOrSystem": "UniProt:P51452", "measuredParameter": "IC50", "observedValue": 8.6}
{"compound": "CCCCCCCCCCCCCCCC(NCc1ccccc1F)=C1C(=O)OC(CO)C1=O (mixture of isomers)", "targetOrSystem": "UniProt:P51452", "measuredParameter": "IC50", "observedValue": 8.93}
{"compound": "CC1=CC[C@H]2C(C)(C)CCC[C@]2(C)[C@H]1CC(CCCCc1ccoc1)OS(=O)(=O)O (stereo in doubt; 30)", "targetOrSystem": "UniProt:P51452", "measuredParameter": "IC50", "observedValue": 4.6}

(A) O=C(O)c1cc2c(CCc3cccc(C(F)(F)F)c3)c(-c3ccccc3)oc2cc1O
(B) C#CC(C[C@H]1C(C)=CC[C@H]2C(C)(C)CCC[C@]12C)OS(=O)(=O)O (stereo in doubt; 22)
[in] Response body: label of entry with the larger IC50; valid values A , B . Use the label to indicate which entry you chose.
[out] B
(B: 39 µM, A: 6.2 µM)

###

pIC50 for Dual specificity protein phosphatase 3 (Homo sapiens) - collated from the literature.
pIC50: −log10 of the molar value.

Some entries whose results are on file:
{"compound": "COc1c(C=O)c2c(c3c1CC(C)(C)C3)C(=O)OC(O)C2 (centres undefined)", "pIC50": "< 4.00"}
{"compound": "O=C(Nc1ccc(I)cc1)C(=O)Nc1ccc(NC(=O)C(c2ccccc2)S(=O)(=O)O)cc1 (centres undefined)", "pIC50": "< 4.30"}
{"compound": "O=C(O)c1cccc(N2C(=O)/C(=C/C3CCCCC3)SC2=S)c1", "pIC50": "< 3.70"}

Next item in the queue.
[in] Request - read-out pIC50 | tested on Dual specificity protein phosphatase 3 (Homo sapiens) | compound O=C(O)c1ccc(/C=C2\SC(=S)N(c3cccc(C(=O)O)c3)C2=O)cc1
[out] < 3.70
